# assay-method-text: qHTS Assay for Rab9 Promoter Activators; also: nearly all actives have a fitted effect of over 60% in size
# applied-conditions: Huh7 Rab9 promoter-luciferase reporter, luminescence, 24 h; series mostly up to 9.22 µM
About 9,100 (2.8%) of roughly 320,000 compounds were called active. Roughly 3% stayed inconclusive and do not appear here. Calls follow the shape of the dose curve; as a rule, active = well fitted activation curve with a large enough effect; inconclusive = small, poorly fitted or top-dose-only effect; inactive = no such curve, though single readings can be large or run the other way. This is one part of a sample in which actives are shown more often than they occur.
Lab note: assign the record to one of active, inactive

Consider the worked cases shown below.
* Nc1nonc1-c1noc(-c2ccc(Br)o2)n1 | inactive
* O=C(COc1cccc(-n2cnnn2)c1)NCCC1=CCCCC1 | inactive
* O=c1c(Cl)c(NC2CC2)cnn1-c1ccccc1 | inactive

## Task Outcome logged for Cc1ccc(C)c(NC(=O)c2cc(-c3cc(C)cc(C)c3O)n[nH]2)c1 in this assay:
## Result inactive

## Task // param item: C=CCNc1cnn(-c2ccc(C)cc2)c(=O)c1Cl ; yields the recorded call
## Result active

## Task Just curious, what result did Cc1nc(SCC(=O)NC2CCCCC2C)c(C#N)c(C)c1C (stereo unspecified) get here?
## Result inactive

## Task Tell me the recorded outcome of this test for O=C(CCCCO)c1ccc(O)c(Cl)c1 .
## Result inactive

## Task What is the recorded call for this compound in the test? CC(C)CCN1CCC(C)(NC(=O)c2ccccc2)C1=O (stereo unspecified)
## Result inactive

## Task Dear colleague, could you share the recorded outcome for O=C(NCCc1csc(-c2ccccc2)n1)c1ccccc1F when you have a moment?
## Result inactive

## Task // param item: N/C(=N\OC(=O)N1c2ccccc2Sc2ccccc21)c1ccc(Br)cc1 ; yields the recorded call
## Result inactive

## Task Recorded test outcome, item N=c1c2c(-c3ccccc3)c(-c3ccccc3)n(Cc3ccccc3)c2ncn1CCCO
## Result inactive

## Task Tell me the assay call for Cc1cc(NC(=O)CSc2nc(C(C)C)nc3sc4c(c23)CCC(C)C4)no1 (stereo unspecified) please.
## Result inactive

## Task Which outcome was entered for the compound O=C(Nc1nc(-c2ccc(-c3ccccc3)cc2)cs1)c1cnccn1 in this test?
## Result inactive

## Task Could you check what this test reported for COc1ccc(Cl)cc1NC(=O)CN(C)C(=O)c1ccc2n[nH]nc2c1 ?
## Result inactive

## Task Identify the outcome logged in this assay for the compound shown: COCCn1c(C)cc(C(=O)COC(=O)CNC(=O)c2ccco2)c1C
## Result inactive

## Task What did the test return for O=C(OCc1ccc([N+](=O)[O-])cc1)c1ccccn1 ?
## Result inactive

## Task Answer briefly: the call reported for O=C(Nc1nnc(-c2ccccc2F)s1)c1ccccc1F in this assay.
## Result active

## Task Call for entry Brc1ccc(-c2noc(-c3ccccc3)n2)o1 :
## Result active

## Task Identify the outcome logged in this assay for the compound shown: CCCSC(=S)NC1CCS(=O)(=O)C1 (stereo unspecified)
## Result inactive

## Task Any idea what this test logged for Cn1nc(-c2ccccc2)c(-c2nc(-c3ccc(Cl)cc3)no2)c1Cl ?
## Result inactive

## Task GET /call?item= Cc1cccc(NC(=O)c2ccc3nsnc3c2)c1C returns the recorded outcome of this test.
## Result inactive

## Task Which result was noted for this compound in the test: COc1ccc(C(=O)O/N=C(\N)c2ccccn2)cc1[N+](=O)[O-]
## Result active

* * *

# assay-method-text: qHTS Assay for Rab9 Promoter Activators; also: nearly all actives have a fitted effect of over 60% in size
# applied-conditions: Huh7 Rab9 promoter-luciferase reporter, luminescence, 24 h; series mostly up to 9.22 µM
Screen size: about 320,000 compounds; about 9,100 (2.8%) were called active. Another 3% or so got no clear call; they are omitted. Calls come from the whole dose curve; as a rule, active = well fitted activation curve with a large enough effect; inconclusive = small, poorly fitted or top-dose-only effect; inactive = no such curve, though single readings can be large or run the other way. For the sample, actives were picked, then their nearest neighbours and some compounds at random.
Reply using exactly one outcome from t for active, f for inactive

# count of solved cases: 5
• C=C(C)C1CC=C(C)/C(=N\NC(=O)CNc2ccccc2OC)C1 (stereo not drawn) = f
• COc1ccc(/C=N\NC(=O)c2sc(N)nc2C)cc1OC = f
• CC(=O)c1sc(N/N=C/c2ccc(C(C)C)cc2)nc1C = t
• O=C(CSCc1ccccc1)N1CCc2ccccc21 = t
• O=C(c1ccc2nc(N3CCOCC3)sc2c1)N1CCN(c2ccc(Cl)cc2)CC1 = f

Next, consider the following molecule.
## Task Recorded test call requested for COc1cccc(COc2ccc(N(C)S(=O)(=O)c3ccccc3)cc2)c1
## Result f

All values here come from PubChem BioAssay AID485297.
